Tested on: CCRF-CEM leukemia
MEASUREMENT PROTOCOL: NCI tumour cell line growth inhibition, 48 h; in the data active = GI50 below about 0.43 µM; inactive = the rest
Outcomes: YES (active), NO (inactive)

{"columns": ["COMPOUND", "TEST SYSTEM", "ANSWER LABEL"],
 "data": [
  ["COC(=N)c1c(N)[n+]([O-])c2ccc(F)cc2[n+]1[O-]", "CCRF-CEM leukemia", "NO"],
  ["Nc1c(C(=O)c2cccc(C#CCO)c2)cnn1-c1ccc(F)cc1", "CCRF-CEM leukemia", "NO"],
  ["COc1ccc(C2=C(c3ccc(OC)c(OC)c3)C(=O)N3CCCC3C2)cc1 (centres undefined)", "CCRF-CEM leukemia", "NO"],
  ["CN(C)c1ccc(C(=NO)c2ccc(N(C)C)cc2)cc1", "CCRF-CEM leukemia", "NO"],
  ["C=C1CC[C@@H]2[C@](C)(COC(C)=O)[C@H](OC(C)=O)CC[C@@]2(C)[C@@H]1CC(Nc1ccc(S(=O)(=O)Nc2ccc(Cl)nn2)cc1)C1=CCOC1=O (some centres undefined)", "CCRF-CEM leukemia", "NO"],
  ["COc1cc(/C=C/C(=O)c2ccc(F)cc2)ccc1OCCCN1CCN(CC(=O)Nc2ccc(Cl)cc2C(=O)c2ccccc2Cl)CC1", "CCRF-CEM leukemia", "NO"],
  ["CC(=O)[O][Sn]([CH2]c1ccccc1)([CH2]c1ccccc1)[CH2]c1ccccc1", "CCRF-CEM leukemia", "NO"],
  ["O1[As]2O[As]3O[As]1O[As](O2)O3", "CCRF-CEM leukemia", "YES"],
  ["O=[N+]([O-])c1ccc(N=Nc2ccc(O)c3ccccc23)cc1", "CCRF-CEM leukemia", "NO"],
  ["CN(C)CC1CCC2=C(C1=O)C(c1ccc(Cl)c(Cl)c1)C1=C(CCC(CN(C)C)C1=O)O2 (centres undefined)", "CCRF-CEM leukemia", "NO"],
  ["O=C(Nc1ccc(Oc2cccc(F)c2)c(Cl)c1)c1cnccn1", "CCRF-CEM leukemia", "NO"],
  ["Cc1nn(-c2ccc([N+](=O)[O-])cc2)c2ncnc(N/N=C/c3ccccc3O)c12", "CCRF-CEM leukemia", "YES"],
  ["CCSc1nc(SCC)c2c(-c3ccc(OC)c(OC)c3)c(C#N)c(SCC)nc2n1", "CCRF-CEM leukemia", "NO"],
  ["CC(=O)O[C@H]1CCC2[C@@H]3CCC4c5nonc5CC[C@]4(C)C3CC[C@@]21C (some centres undefined)", "CCRF-CEM leukemia", "NO"]
]}

Measured values drawn from PubChem BioAssay (NCI) for this set.
